B1: Histone-lysine N-methyltransferase SETD2, residues 2382 to 2430; numbered along this chain, Q9BYW2 (parent)
chain: SPPKPKTIVLPPNWKTARDPEGKIYYYHVITRQTQWDPPTWESPGDDAS

# Variants of: B1
# Test: abundance fitness (aPCA) (normalised: wild type 0, dead -1); higher = more abundant; growth selection in yeast, the domain comes from the species named
# Measurement parameters: Homo sapiens

[
  {
    "Variant notation": "S1N",
    "abundance fitness": 0.442
  },
  {
    "Variant notation": "Y27F",
    "abundance fitness": -0.487
  },
  {
    "Variant notation": "I8N",
    "abundance fitness": 0.112
  },
  {
    "Variant notation": "P5Q",
    "abundance fitness": 0.007
  },
  {
    "Variant notation": "V9N",
    "abundance fitness": 0.21
  },
  {
    "Variant notation": "P2V",
    "abundance fitness": -0.065
  },
  {
    "Variant notation": "Q35V",
    "abundance fitness": -0.212
  },
  {
    "Variant notation": "P39C",
    "abundance fitness": -0.812
  },
  {
    "Variant notation": "D19Y",
    "abundance fitness": -0.601
  },
  {
    "Variant notation": "P5K",
    "abundance fitness": 0.159
  },
  {
    "Variant notation": "A48D",
    "abundance fitness": 0.1
  },
  {
    "Variant notation": "S49E",
    "abundance fitness": -0.279
  },
  {
    "Variant notation": "G22R",
    "abundance fitness": -0.607
  },
  {
    "Variant notation": "T40N",
    "abundance fitness": 0.045
  },
  {
    "Variant notation": "D46P",
    "abundance fitness": -0.069
  },
  {
    "Variant notation": "P3G",
    "abundance fitness": 0.129
  },
  {
    "Variant notation": "G22Q",
    "abundance fitness": -0.841
  },
  {
    "Variant notation": "N13V",
    "abundance fitness": -0.523
  },
  {
    "Variant notation": "P39I",
    "abundance fitness": -0.835
  },
  {
    "Variant notation": "E21P",
    "abundance fitness": -0.989
  },
  {
    "Variant notation": "G45K",
    "abundance fitness": 0.006
  },
  {
    "Variant notation": "V29E",
    "abundance fitness": 0.139
  },
  {
    "Variant notation": "P3L",
    "abundance fitness": 0.105
  },
  {
    "Variant notation": "W41P",
    "abundance fitness": -0.058
  },
  {
    "Variant notation": "Q33F",
    "abundance fitness": -0.906
  },
  {
    "Variant notation": "T40Q",
    "abundance fitness": 0.277
  },
  {
    "Variant notation": "T7V",
    "abundance fitness": -0.148
  },
  {
    "Variant notation": "P11W",
    "abundance fitness": -0.811
  },
  {
    "Variant notation": "Y27M",
    "abundance fitness": -0.339
  },
  {
    "Variant notation": "A48E",
    "abundance fitness": 0.1
  },
  {
    "Variant notation": "H28V",
    "abundance fitness": -0.991
  },
  {
    "Variant notation": "W36H",
    "abundance fitness": 0.33
  },
  {
    "Variant notation": "G45H",
    "abundance fitness": -0.73
  },
  {
    "Variant notation": "P20G",
    "abundance fitness": -0.03
  },
  {
    "Variant notation": "Y27V",
    "abundance fitness": -0.173
  },
  {
    "Variant notation": "P3M",
    "abundance fitness": 0.369
  },
  {
    "Variant notation": "T40I",
    "abundance fitness": -0.629
  },
  {
    "Variant notation": "P38G",
    "abundance fitness": -0.693
  }
]
